All figures here come from patent US20060069132A1.

Reported Blackgrass plant response rating is given for each of the following compounds.
tested on: blackgrass; assay: Test B postemergence herbicide test; format: in vivo, Alopecurus myosuroides; details: postemergence, 125 g ai/ha; scale 0 to 100

[
  {
    "compound": "C=CCN(CC=C)C(=O)c1cccc(NC(=O)c2nn(C(C)(C)C)nc2CC)c1 [Compound 415]",
    "system": "blackgrass",
    "Blackgrass plant response rating": 30
  },
  {
    "compound": "Cc1nn(C(C)(C)C)nc1C(=O)Nc1cccc(C(=O)N2CC=CC2)n1 [Compound 441]",
    "system": "blackgrass",
    "Blackgrass plant response rating": 20
  },
  {
    "compound": "CCn1nc(C(C)(C)C)cc1C(=O)Nc1cccc(OS(=O)(=O)CC)c1 [Compound 408]",
    "system": "blackgrass",
    "Blackgrass plant response rating": 40
  },
  {
    "compound": "CCNC(=O)c1cccc(NC(=O)c2nn(C(C)(C)C)nc2C)n1 [Compound 437]",
    "system": "blackgrass",
    "Blackgrass plant response rating": 0
  },
  {
    "compound": "CCN(C)C(=O)c1cccc(NC(=O)c2nn(C(C)C)nc2C)c1 [Compound 407]",
    "system": "blackgrass",
    "Blackgrass plant response rating": 0
  }
]
